Cited source for all entries: patent US8106055B2

Target: serotonin (5-HT) reuptake (Rattus norvegicus)
Construct: synaptosomes are freshly isolated from areas of the rat brain; from tissue; host or cells: rat brain synaptosomes (P2 fraction)
Sequence (P31652 whole entry): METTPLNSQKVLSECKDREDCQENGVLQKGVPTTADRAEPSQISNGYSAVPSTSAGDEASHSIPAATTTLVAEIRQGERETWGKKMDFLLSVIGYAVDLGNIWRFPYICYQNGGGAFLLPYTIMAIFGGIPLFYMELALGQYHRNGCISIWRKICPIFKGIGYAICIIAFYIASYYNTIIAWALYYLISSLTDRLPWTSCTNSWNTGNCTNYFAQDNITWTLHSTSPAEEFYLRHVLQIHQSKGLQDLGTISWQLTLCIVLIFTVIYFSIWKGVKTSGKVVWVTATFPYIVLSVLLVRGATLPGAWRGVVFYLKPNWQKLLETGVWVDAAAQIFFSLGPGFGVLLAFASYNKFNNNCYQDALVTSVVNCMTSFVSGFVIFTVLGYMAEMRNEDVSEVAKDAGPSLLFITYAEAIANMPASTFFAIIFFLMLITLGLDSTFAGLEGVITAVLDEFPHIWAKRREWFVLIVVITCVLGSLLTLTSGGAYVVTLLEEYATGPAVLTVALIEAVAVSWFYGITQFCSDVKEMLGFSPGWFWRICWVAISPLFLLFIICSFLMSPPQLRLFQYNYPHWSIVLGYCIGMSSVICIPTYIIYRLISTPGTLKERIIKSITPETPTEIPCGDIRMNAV
Test: Inhibition of serotonin (5HT) reuptake in synaptosomes from rat brain
Assay type: biochemical
Conditions: test concentration of 10 μM
# if value of 5-HT (inhibition of reuptake of serotonin, % inhibition) reaches 90%, tag true; if it stays below, tag false

-- ask Quick check, 5-HT (inhibition of reuptake of serotonin, % inhibition) >= 90%? COc1cc(C)c(S(=O)(=O)N2CCC(OCC(=O)NC3CCC(C(c4cccc(F)c4)N(C)C)CC3)C2)c(C)c1 (stereo not shown)
-- reply true

-- ask Quick check, 5-HT (inhibition of reuptake of serotonin, % inhibition) >= 90%? COc1cc(C)c(S(=O)(=O)N2CCN(CCOCC(=O)NCC3CCC(C(c4ccc(F)cc4)N(C)C)CC3)CC2)c(C)c1C (stereo not shown)
-- reply true

-- ask Quick check, 5-HT (inhibition of reuptake of serotonin, % inhibition) >= 90%? Cc1cc(C)c(S(=O)(=O)N2CCC(OCC(=O)NCC3CCC(C(c4ccc(Cl)cc4)N(C)C)CC3)C2)c(C)c1 (stereo not shown)
-- reply false

-- ask Quick check, 5-HT (inhibition of reuptake of serotonin, % inhibition) >= 90%? CC(Oc1ccccc1)C(=O)NCCC1CCC(C(c2ccc(F)cc2)N(C)C)CC1 (stereo not shown)
-- reply false

-- ask Quick check, 5-HT (inhibition of reuptake of serotonin, % inhibition) >= 90%? CN(C)C(c1ccc(Cl)cc1)C1CCC(CCNC(=O)COCCN(C)S(=O)(=O)c2cccc(C(F)(F)F)c2)CC1 (stereo not shown)
-- reply true

-- ask Quick check, 5-HT (inhibition of reuptake of serotonin, % inhibition) >= 90%? CN(C)C(c1cccc(F)c1)C1CCC(CCNC(=O)COCCC2CCN(S(=O)(=O)c3ccccc3)CC2)CC1 (stereo not shown)
-- reply false

-- ask Quick check, 5-HT (inhibition of reuptake of serotonin, % inhibition) >= 90%? CN(C)C(c1ccc(F)cc1)C1CCC(NC(=O)COCCN(C)S(=O)(=O)c2c(Cl)cc(Cl)cc2Cl)CC1 (stereo not shown)
-- reply true
